The measurements presented in this section are drawn from ChEMBL document CHEMBL1201862.

- Tested on: INS1
- assayText: INS-1E survival protection against cytokine death – cell-based, luminescence, retest, dose response (AID 449756);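 note: cell death triggered by IL-1 beta plus TNF-alpha plus IFN-gamma mixture; protective hits raise ATP signal compared with cytokine alone wells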
- Type: functional
- runParameters: Rattus norvegicus
The source made the active and inactive calls.
measuredQuantity: AC50

As a guide, the following entries are already answered.
smilesStr: O=C(Nc1ccc(F)cc1)Nc1cc(OCC(F)(F)F)cc(OCC(F)(F)F)c1
measuredQuantity: AC50
measuredResult: 2.01 µM (active)

smilesStr: CCNC(=O)Nc1cc(S(=O)(=O)Nc2ccc(OC)cc2)ccc1N1CCOCC1
measuredQuantity: AC50
measuredResult: 3.3 µM (active)

smilesStr: O=C(N/N=C/c1cc([N+](=O)[O-])ccc1O)c1cc(-c2ccccc2)nc2ccccc12
measuredQuantity: AC50
measuredResult: 1.24 µM (active)

smilesStr: CC1CCN(Cc2c(C(=O)N/N=C/c3cc(Br)ccc3O)nnn2-c2nonc2N)CC1
measuredQuantity: AC50
measuredResult: 0.365 µM (active)

smilesStr: Cc1cc2cc(CN3C(=O)c4ccccc4C3=O)ccc2n1C
measuredQuantity: AC50
measuredResult: 13.3 µM (active)

smilesStr: O=C1/C(=C\c2cccnc2)CN(Cc2ccccc2)C/C1=C\c1cccnc1
measuredQuantity: AC50
measuredResult: 4.87 µM (active)

smilesStr: O=C(CN1CC[n+]2c(-c3cccs3)csc21)c1ccc(-c2ccccc2)cc1
measuredQuantity: AC50
measuredResult: 2.39 µM (active)

From here, focus on the item given below.
Field request: AC50 | item: "CC1(C)C[C@@H]2C[C@@](C)(CN2C(=O)c2cc(COc3cccc(C(F)(F)F)c3)on2)C1" 11.6 µM (active)

* * *

- targetOfAssay: Voltage-dependent T-type calcium channel subunit alpha-1H (Homo sapiens);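 note: channel activity triggered by adding a high calcium stimulation buffer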
- Sequence (O95180 whole entry): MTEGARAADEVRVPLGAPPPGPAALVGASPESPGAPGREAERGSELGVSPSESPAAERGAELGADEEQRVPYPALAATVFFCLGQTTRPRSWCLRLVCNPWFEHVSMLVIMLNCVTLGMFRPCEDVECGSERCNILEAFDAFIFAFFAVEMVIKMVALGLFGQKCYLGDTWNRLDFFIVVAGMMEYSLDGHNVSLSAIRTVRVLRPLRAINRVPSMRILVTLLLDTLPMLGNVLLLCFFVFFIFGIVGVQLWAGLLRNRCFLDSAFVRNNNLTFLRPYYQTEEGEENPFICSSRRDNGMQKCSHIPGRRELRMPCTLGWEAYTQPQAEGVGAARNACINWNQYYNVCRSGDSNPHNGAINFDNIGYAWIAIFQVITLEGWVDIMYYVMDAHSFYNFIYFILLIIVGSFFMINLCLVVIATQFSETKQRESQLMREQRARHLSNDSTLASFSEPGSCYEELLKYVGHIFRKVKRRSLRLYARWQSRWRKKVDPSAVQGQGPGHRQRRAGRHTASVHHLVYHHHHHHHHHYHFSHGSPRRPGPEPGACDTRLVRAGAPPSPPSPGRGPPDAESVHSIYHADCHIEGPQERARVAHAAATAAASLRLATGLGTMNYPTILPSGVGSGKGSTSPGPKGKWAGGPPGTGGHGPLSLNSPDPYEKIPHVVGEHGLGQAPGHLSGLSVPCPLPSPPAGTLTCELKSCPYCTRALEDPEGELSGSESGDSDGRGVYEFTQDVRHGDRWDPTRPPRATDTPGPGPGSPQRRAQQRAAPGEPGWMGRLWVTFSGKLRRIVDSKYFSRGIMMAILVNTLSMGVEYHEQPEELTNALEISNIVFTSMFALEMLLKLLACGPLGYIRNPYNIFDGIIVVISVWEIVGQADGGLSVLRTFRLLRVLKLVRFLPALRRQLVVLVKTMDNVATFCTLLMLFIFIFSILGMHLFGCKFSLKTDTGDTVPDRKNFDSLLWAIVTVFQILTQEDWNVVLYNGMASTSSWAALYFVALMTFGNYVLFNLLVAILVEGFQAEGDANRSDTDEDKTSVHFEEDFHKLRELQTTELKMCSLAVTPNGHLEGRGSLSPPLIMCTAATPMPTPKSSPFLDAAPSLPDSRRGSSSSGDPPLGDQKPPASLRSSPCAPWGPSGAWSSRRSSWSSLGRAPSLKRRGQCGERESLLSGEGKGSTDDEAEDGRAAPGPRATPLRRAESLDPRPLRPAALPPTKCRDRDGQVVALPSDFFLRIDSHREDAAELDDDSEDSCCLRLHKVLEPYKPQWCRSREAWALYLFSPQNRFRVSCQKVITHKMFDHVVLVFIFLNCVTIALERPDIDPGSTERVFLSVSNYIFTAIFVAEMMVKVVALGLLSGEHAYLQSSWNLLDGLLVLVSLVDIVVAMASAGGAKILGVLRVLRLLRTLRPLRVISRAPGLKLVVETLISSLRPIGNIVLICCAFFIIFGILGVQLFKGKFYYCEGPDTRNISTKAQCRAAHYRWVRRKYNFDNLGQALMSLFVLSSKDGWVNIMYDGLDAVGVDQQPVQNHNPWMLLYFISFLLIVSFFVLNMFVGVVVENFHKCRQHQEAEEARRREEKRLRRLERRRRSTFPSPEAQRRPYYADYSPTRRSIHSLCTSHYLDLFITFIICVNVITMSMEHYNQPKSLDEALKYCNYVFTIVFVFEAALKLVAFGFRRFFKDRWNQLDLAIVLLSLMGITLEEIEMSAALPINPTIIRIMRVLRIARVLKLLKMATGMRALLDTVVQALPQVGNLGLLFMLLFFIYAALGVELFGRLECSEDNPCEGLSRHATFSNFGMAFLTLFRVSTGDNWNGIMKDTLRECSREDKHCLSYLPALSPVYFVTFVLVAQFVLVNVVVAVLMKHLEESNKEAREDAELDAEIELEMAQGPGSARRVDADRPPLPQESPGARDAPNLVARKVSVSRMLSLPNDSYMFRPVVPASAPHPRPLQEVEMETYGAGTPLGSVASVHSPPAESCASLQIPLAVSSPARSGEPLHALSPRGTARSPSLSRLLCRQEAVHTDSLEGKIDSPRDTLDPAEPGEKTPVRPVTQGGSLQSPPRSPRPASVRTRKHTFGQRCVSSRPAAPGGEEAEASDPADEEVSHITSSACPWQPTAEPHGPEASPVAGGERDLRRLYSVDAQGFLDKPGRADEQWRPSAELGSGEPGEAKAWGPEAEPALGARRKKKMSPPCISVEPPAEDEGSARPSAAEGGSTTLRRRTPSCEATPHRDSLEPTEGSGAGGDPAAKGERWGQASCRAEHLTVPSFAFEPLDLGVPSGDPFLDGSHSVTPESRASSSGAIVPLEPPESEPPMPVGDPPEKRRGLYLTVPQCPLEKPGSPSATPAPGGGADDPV
- Format: functional
Calls of active or inactive are those of the source.
measuredQuantity: EC50

As a guide, the following entries are already answered.
compound: Cc1ccc(CSCCNC(=O)c2ccc(Cl)c(S(=O)(=O)N3CCOCC3)c2)cc1
measuredResult: 4.41 µM (active)

compound: C=CCN(CC=C)CC(O)Cn1c2ccccc2c2ccccc21 (centres undefined)
measuredResult: 9.06 µM (active)

compound: CCc1ccccc1NC(=O)c1cc2sccc2n1C
measuredResult: 12 µM (active)

Field request: EC50 | item: Cc1ccc2c(c1)C(O)(c1c(C)[nH]c3ccccc13)C(=O)N2 (centres undefined) 8.82 µM (active)

* * *

Measured EC50, listed per entry.
- assayText: cells
- Format: functional, cell-based
Calls of active or inactive are those of the source.

compound: CC(OC(=O)COc1ccc(Nc2ccccc2)cc1)C(=O)N(C)c1ccccc1 (centres undefined)
EC50: 30.5 µM (active)

compound: Cc1oc(-c2ccc(Cl)cc2)cc1/C(O)=C(C#N)/C=N/c1cccc(OC(F)(F)F)c1
EC50: > 350 µM (not active)

compound: Cc1ccc2c(c1)C1NC(S)=NC(C)(O2)C1C(=O)Nc1ccc(Cl)cc1 (centres undefined)
EC50: > 350 µM (not active)

From here, focus on the item given below.
Field request: EC50 | item: CC(C)C(=O)NC(c1ccc(Cl)cc1Cl)c1ccc2cccnc2c1O (centres undefined) > 350 µM (not active)

* * *

- targetOfAssay: DNA dC->dU-editing enzyme APOBEC-3G (Homo sapiens, UniProt Q9HC16)
- Sequence (Q9HC16 whole entry): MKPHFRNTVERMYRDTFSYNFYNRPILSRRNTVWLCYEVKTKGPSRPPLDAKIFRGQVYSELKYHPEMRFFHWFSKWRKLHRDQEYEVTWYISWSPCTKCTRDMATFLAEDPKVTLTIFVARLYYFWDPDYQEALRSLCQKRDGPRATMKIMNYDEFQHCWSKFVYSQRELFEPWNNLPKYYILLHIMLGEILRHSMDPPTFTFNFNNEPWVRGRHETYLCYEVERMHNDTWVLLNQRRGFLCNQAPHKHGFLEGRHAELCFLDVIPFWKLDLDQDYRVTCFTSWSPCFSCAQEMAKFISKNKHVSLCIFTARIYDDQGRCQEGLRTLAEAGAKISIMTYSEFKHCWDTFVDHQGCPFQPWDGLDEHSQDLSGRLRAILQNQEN
- assayText: Dose Response confirmation of small molecule APOBEC3G DNA Deaminase Inhibitors via a fluorescence-based single-stranded DNA deaminase assay. [Related pubchem assays (depositor defined):AID493012, AID493028]
- Format: functional
Activity calls are given as the source filed them.
Measured IC50, listed per entry.

As a guide, the following entries are already answered.
smilesStr: CC(C)(C)C1=Nn2c(nnc2-c2n[nH]c3c2CCC3)SC1
targetOfAssay: DNA dC->dU-editing enzyme APOBEC-3G (Homo sapiens, UniProt Q9HC16)
measuredResult: 23.3 µM (active)
//
smilesStr: O=C(Nc1nnc(S)s1)c1ccco1
targetOfAssay: DNA dC->dU-editing enzyme APOBEC-3G (Homo sapiens, UniProt Q9HC16)
measuredResult: 5.51 µM (active)
//
smilesStr: CCc1ccc(-n2c(=O)c3ccccc3n3c(S)nnc23)cc1.CN(C)C=O
targetOfAssay: DNA dC->dU-editing enzyme APOBEC-3G (Homo sapiens, UniProt Q9HC16)
measuredResult: 4.9 µM (active)
//
smilesStr: N#Cc1cc2c([nH]c1=S)CCCC2
targetOfAssay: DNA dC->dU-editing enzyme APOBEC-3G (Homo sapiens, UniProt Q9HC16)
measuredResult: 5.16 µM (active)

From here, focus on the item given below.
Field request: IC50 | item: "CCc1ccc(-n2c(C)nnc2S)cc1" 14.6 µM (active)
